Measured IC50 of individual entries
- Test system: human platelet rich plasma (PRP)
- assay.summary: ADP induced platelet aggregation assay
- run.conditions: Homo sapiens, Platelet, 5 min, read-out: PA IC50 (μM) @ 10 μM ADP, human PRP, 10 μM ADP, AUC at 5 minute
value.kind: IC50 (µM)

> print(dat)
                         structure.notation  unit.of.measurement  recorded.result
1  CC1(C)CN(c2ccccc2NC(=O)Nc2nc3ccc(Br)cc3s2)c2c(O)ccc(Br)c21                   µM             0.45
2  CC1(C)CN(c2ccccc2NC(=O)Nc2ccc(OC(F)(F)F)cc2)c2c(O)ccc(-c3cccc(F)c3)c21                   µM             0.24
3  CC1(C)CN(c2ccccc2NC(=O)Nc2nc3ccc(F)cc3s2)c2c(O)ccc(-c3nc4ccc(Cl)cc4s3)c21                   µM             1.06
4  CC1(C)CN(c2ccccc2NC(=O)Nc2nc3ccc(F)nc3s2)c2c(O)cc(F)c(-c3nc4ccc(F)cc4s3)c21                   µM             0.74
5  CC1(C)CN(c2ccccc2NC(=O)Nc2ccc(OC(F)(F)F)cc2)c2c(O)ccc(-c3nc4c(CO)cccc4o3)c21                   µM             3.28
6  CCC1(CC)CN(c2ccccc2NC(=O)Nc2ccc(OC(F)(F)F)cc2)c2c(O)ccc(C)c21                   µM              0.5
7  Cc1cc(-c2c(F)cc(O)c3c2C(C)(C)CN3c2ccccc2NC(=O)Nc2ccc(OC(F)(F)F)cc2)ccc1F                   µM             0.19
